Recorded %Inh values for a group of molecules are listed next.
System: GSK3A
Condition: concentration: 1 μM,replicates: in singlicate; n = 1
Please append the unit to your numeric answer.

The cases that follow already have their %Inh on record.
1. Cc1n[nH]c2cc(Nc3ccnc(Nc4cccc(CN5CCOCC5)c4)n3)ccc12 [GW682569]	0%
2. COc1cccc(C2=C(Nc3cccc(Cl)c3)C(=O)NC2=O)c1 [SB-341556]	70%
3. O=c1[nH]cc(-c2ccc(O)cc2)c2sc(-c3ccncc3)cc12 [GSK1033723]	63%
4. CS(=O)(=O)c1cccc(CNc2nc(Nc3ccc4c(c3)[C@@H]3C[C@@H]4CNC3=O)ncc2C(F)(F)F)c1	74%
5. CC(=O)Nc1ccc(-c2cc3ncnc(SCC(=O)O)c3s2)cc1	0%
6. Nc1nccc(-c2ccc3c(N)n[nH]c3c2)n1 [GSK1034945]	0%
7. Cc1ccc2c(-c3ccnc(Nc4ccc(C(F)(F)F)cc4)n3)cnn2n1 [GW819776]	74%
8. NC(=O)Nc1sc(-c2ccc(F)cc2)cc1C(N)=O [GW789449]	0%

**Query** Field: %Inh (GSK3A). Entry: O=C(Nc1ccc(Oc2ccc3nc(NC(=O)C4CC4)cn3n2)c(F)c1)c1cccn(-c2ccccc2)c1=O
**Result** 25%

**Query** Lab request: please report %Inh under test system GSK3A for O=C(NOCC1CC1)c1cc(Br)c(F)c(F)c1Nc1ccc(I)cc1Cl;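 further: KINOMEscan kinase panel screen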
**Result** 33%
